Sourced from ChEMBL document CHEMBL4130590

- target-desc: Serine/threonine-protein kinase PknA (Mycobacterium tuberculosis (strain ATCC 25618 / H37Rv), UniProt P9WI83)
- Sequence (P9WI83 whole entry, the tested form may be a part): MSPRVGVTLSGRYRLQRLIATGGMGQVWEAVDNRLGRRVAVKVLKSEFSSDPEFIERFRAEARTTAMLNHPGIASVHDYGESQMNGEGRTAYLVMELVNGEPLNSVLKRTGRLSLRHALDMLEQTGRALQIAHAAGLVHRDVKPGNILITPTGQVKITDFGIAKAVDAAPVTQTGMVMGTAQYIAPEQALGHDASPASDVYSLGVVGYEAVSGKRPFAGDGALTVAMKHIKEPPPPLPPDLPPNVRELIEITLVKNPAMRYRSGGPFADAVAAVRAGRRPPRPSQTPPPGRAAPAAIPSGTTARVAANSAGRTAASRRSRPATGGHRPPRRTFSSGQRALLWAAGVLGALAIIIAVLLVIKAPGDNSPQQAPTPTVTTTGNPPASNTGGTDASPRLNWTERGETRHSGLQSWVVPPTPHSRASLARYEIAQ
- protocol-notes: Inhibition of Mycobacterium tuberculosis PknA (M1 to A296 residues) expressed in Escherichia coli BL21 (DE3) pLysS cells using [T-33P]ATP as substrate after 120 mins in presence of GarA by liquid scintillation method
pKi: −log10 of the molar value.
measure: pKi

>>> result("N#Cc1cccc(-c2nc(Nc3cc(C4CC4)[nH]n3)c3cc(Cl)ccc3n2)c1")
"< 5.40"
>>> result("NS(=O)(=O)c1cccc(-c2ncc(Cl)c(Nc3cc(C4CC4)[nH]n3)n2)c1")
"> 8.10"
>>> result("NC(=O)c1ccc(-c2nc(Nc3cc(C4CC4)[nH]n3)c3cc(Cl)ccc3n2)cc1")
"< 5.40"
>>> result("NS(=O)(=O)c1ccc(-c2nc(Nc3cc(C4CC4)[nH]n3)c3cc(Cl)ccc3n2)s1")
"> 8.10"
>>> result("Cc1ccc2nc(N3CCCCCC3)nc(Nc3cc(C4CC4)[nH]n3)c2c1")
"< 4.48"
